Listed next: entries and their corresponding EC50.
# Tested system: human CB2 (hCB2) (Homo sapiens, UniProt P34972)
# Construct: (cDNA clone) CNR0200000
# Sequence (P34972 whole entry): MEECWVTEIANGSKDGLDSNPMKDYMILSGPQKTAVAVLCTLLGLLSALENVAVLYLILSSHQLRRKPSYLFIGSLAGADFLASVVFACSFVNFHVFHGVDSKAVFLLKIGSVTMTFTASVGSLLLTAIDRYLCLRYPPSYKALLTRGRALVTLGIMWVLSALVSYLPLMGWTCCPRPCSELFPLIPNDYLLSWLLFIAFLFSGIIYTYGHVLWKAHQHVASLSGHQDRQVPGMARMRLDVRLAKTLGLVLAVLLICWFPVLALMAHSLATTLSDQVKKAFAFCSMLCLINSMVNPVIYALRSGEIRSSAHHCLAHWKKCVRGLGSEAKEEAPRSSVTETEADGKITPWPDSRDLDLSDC
# Assay name: 35S GTPγS binding assay, hCB2 agonist
# Format: biochemical
# Test settings: GTPγS agonist, HEK-293 membranes; read-out: hCB2 EC50 (GTPyS ag)

{"Molecule": "COc1ccc(C(=O)c2cc3cc(C)n(S(=O)(=O)CCN4CCOCC4)c3s2)cc1 [Compound 139]", "EC50": "< 100 nM"}
{"Molecule": "COc1ncccc1C(=O)c1cc2cc(C)n(CCN3CCOCC3)c2s1 [Compound 47]", "EC50": "100 to 1000 nM"}
{"Molecule": "COc1ccc(C(=O)c2cc3cc(C)n(CCCNS(C)(=O)=O)c3s2)c(F)c1 [Compound 87]", "EC50": "< 100 nM"}
{"Molecule": "Cc1cc2cc(C(=O)c3ccc(C(F)(F)F)cc3)sc2n1CCN1CCOCC1 [Compound 60]", "EC50": "1000 to 10000 nM"}
